- assay-system: Shiga toxin 2 (Escherichia coli O157:H7) (UniProt P09385+P09386)
- procedure-details: E. coli 0.157:H7 Shiga Toxin SOP - stx2 screening assay
- Type: functional
- Set-up: scale not given: direction of the effect not stated beside the values
- setup-conditions: 30 µM
Catalogue of Percent Effect readings, one per entry.

[
  {
    "compound": "Cc1noc(NC(=O)c2ccc(Br)cc2)n1",
    "Percent Effect / %": 54.5
  },
  {
    "compound": "Cn1nccc1C1CCN(Cc2csc(-c3ncccn3)n2)CC1",
    "Percent Effect / %": -10.6
  },
  {
    "compound": "Cc1ccc(CN2CCOC3(COCCN(CCN(C)C)C3)C2)o1 (centres undefined)",
    "Percent Effect / %": -4.4
  },
  {
    "compound": "O=C(COc1coc(CN2CCCCC2)cc1=O)Nc1ccccc1Cl",
    "Percent Effect / %": -4.27
  },
  {
    "compound": "OC[C@H]1CC[C@]2(CC1)CN(Cc1ccccn1)Cc1ccccc1O2",
    "Percent Effect / %": 2.28
  },
  {
    "compound": "Cc1nnc(C(C)N2CCN(Cc3ccc(C#N)cc3)CC2)o1 (centres undefined)",
    "Percent Effect / %": 20
  },
  {
    "compound": "CNS(=O)(=O)c1cccc(CNC(=O)c2c(C)nn(C)c2C)c1",
    "Percent Effect / %": 8.19
  },
  {
    "compound": "Cc1cc(C(=O)NCc2ccccn2)no1",
    "Percent Effect / %": -0.424
  },
  {
    "compound": "CN(C)S(=O)(=O)N1CCC(Oc2ccccn2)CC1",
    "Percent Effect / %": 10.6
  },
  {
    "compound": "Cc1noc([C@H]2C[C@@H]3CCN(C(=O)C4CCOCC4)C[C@H]3O2)n1",
    "Percent Effect / %": -0.561
  },
  {
    "compound": "CC(O)CN1CCN(C(=O)c2cc3ccccc3c(=O)[nH]2)CC1 (centres undefined)",
    "Percent Effect / %": -10.8
  },
  {
    "compound": "O=C(COc1coc(CN2CCOCC2)cc1=O)c1ccc(Cl)cc1",
    "Percent Effect / %": -57.8
  },
  {
    "compound": "COC(=O)c1cccc(NS(=O)(=O)c2cnc(NC(C)=O)s2)c1",
    "Percent Effect / %": -26.3
  },
  {
    "compound": "CCn1ccnc1CN1CCN(CC(O)c2ccccc2)CC1 (centres undefined)",
    "Percent Effect / %": -31
  },
  {
    "compound": "O=C(Nc1cccnc1)[C@H]1CO[C@H]2CCN(c3ncc(F)cn3)C[C@H]2C1",
    "Percent Effect / %": -22.2
  },
  {
    "compound": "CCC(NC(N)=O)c1ccccc1OCC(=O)N1CCCC1 (centres undefined)",
    "Percent Effect / %": -58.1
  },
  {
    "compound": "Cc1cccc(CN2C[C@H](NS(C)(=O)=O)[C@@H]3OCCC[C@@H]32)n1",
    "Percent Effect / %": -15.5
  },
  {
    "compound": "CC(C)=CCN(C)C1CCCN(Cc2noc(C)n2)C1 (centres undefined)",
    "Percent Effect / %": 25.2
  },
  {
    "compound": "Cc1ccc(N2CC3(COCCN(Cc4nccs4)C3)OCC2=O)s1 (centres undefined)",
    "Percent Effect / %": -13.5
  },
  {
    "compound": "O=C(C1=CCCC1)N1C[C@H](Oc2cccnc2)[C@H]2OCCC[C@H]21",
    "Percent Effect / %": -10.5
  },
  {
    "compound": "c1cncc(CO[C@H]2CO[C@@]3(CCN(Cc4ccoc4)C3)C2)c1",
    "Percent Effect / %": -19.8
  },
  {
    "compound": "CCn1c(N)nc2cc(C(=O)NCCc3ccccc3C)cnc21",
    "Percent Effect / %": -69.2
  },
  {
    "compound": "COc1cc(OC)c(C2Nc3cc(Cl)ccc3C3=NCCN32)cc1OC (centres undefined)",
    "Percent Effect / %": -48.2
  },
  {
    "compound": "COCCC(=O)N1CCC2(CC1)CC(c1ccccc1)CN(C)C2 (centres undefined)",
    "Percent Effect / %": 17.5
  },
  {
    "compound": "CC1CCc2nc(O)c(C(=O)NCCN(C)C)cc2C1 (centres undefined)",
    "Percent Effect / %": -8.38
  },
  {
    "compound": "Cc1ccccc1[C@@H]1CN(C(=O)c2ccc3[nH]nnc3c2)C[C@H]1C(=O)O",
    "Percent Effect / %": -15.8
  },
  {
    "compound": "CCCN1CCCn2nc(CNC(=O)CCc3scnc3C)cc2C1",
    "Percent Effect / %": 3.64
  },
  {
    "compound": "O=C(CN1CCCC1Cn1cncn1)NCCc1c(F)cccc1F (centres undefined)",
    "Percent Effect / %": -12.5
  },
  {
    "compound": "COCCCC1(CO)CCCN(CCS(C)(=O)=O)C1 (centres undefined)",
    "Percent Effect / %": 0.747
  },
  {
    "compound": "CC(C)CCN1CC2(CCCN(C(=O)c3cscn3)C2)CCC1=O (centres undefined)",
    "Percent Effect / %": -13.4
  },
  {
    "compound": "CC(OCC(F)(F)F)C(=O)Nc1ccc(-n2cncn2)nc1 (centres undefined)",
    "Percent Effect / %": 13.4
  },
  {
    "compound": "Cc1cnc2c(S(=O)(=O)NCC3CCN(C4CC4)C3)cccc2c1 (centres undefined)",
    "Percent Effect / %": 25.5
  },
  {
    "compound": "Cc1cccc(CN(C)Cc2nc3c(cnn3C)c(=O)[nH]2)c1",
    "Percent Effect / %": 35.9
  },
  {
    "compound": "CN(C)C(=O)N1CCN(Cc2cnn(C)c2)CC2(CNC(=O)C2)C1 (centres undefined)",
    "Percent Effect / %": -5.82
  },
  {
    "compound": "Cc1cnc(CN2CCCC(c3cc(C(F)(F)F)[nH]n3)C2)cn1 (centres undefined)",
    "Percent Effect / %": 7.14
  },
  {
    "compound": "NC(=O)c1ccc2c(c1)nc1n2CCN(Cc2ccccc2)C1",
    "Percent Effect / %": -9.11
  },
  {
    "compound": "CN1CCOC(CNCc2nc(-c3ccccc3)cs2)C1 (centres undefined)",
    "Percent Effect / %": -26
  },
  {
    "compound": "COCCOCC(=O)Nc1ccc(Br)cc1F",
    "Percent Effect / %": -5.97
  },
  {
    "compound": "COc1ncccc1CN1C[C@@H]2COC[C@]2(COCC2CC2)C1",
    "Percent Effect / %": -25.1
  }
]
